Reference source: ChEMBL document CHEMBL1124702

# tested-on: Glutamate NMDA receptor
# method: Inhibition of N-methyl-D-aspartate glutamate receptor (NMDA receptor) from homogenized rat brain membrane, using [3H]-MK-801 as a radioligand
parameter: pKi
Note on pKi: it is the negative log10 of concentration, concentration in mol/L.

Examples with answers:
[
  {
    "molecule": "OCCC12NC(Cc3ccccc31)c1ccccc12 (configuration not stated)",
    "tested-on": "Glutamate NMDA receptor",
    "pKi": 6.59
  },
  {
    "molecule": "CC12NC(c3ccccc31)[C@@H](O)c1ccccc12 (stereo in doubt; (+)120)",
    "tested-on": "Glutamate NMDA receptor",
    "pKi": 7.04
  }
]

Would you kindly share the measured pKi for CC12NC(F)(Cc3ccccc31)c1ccccc12 (configuration not stated) ?
6.03

Then what about the molecule C[C@]12N[C@H](Cc3ccccc31)Cc1ccccc12 ?
6.86

Also OCCC12NC(O)(Cc3ccccc31)c1ccccc12 (configuration not stated) ?
7.13

// same read-out, input: Cc1ccc2c(c1)C1(C)NC(C2)c2ccccc21 (configuration not stated)
7.47

* * *

# tested-on: Glutamate NMDA receptor
# method: Inhibition of N-methyl-D-aspartate glutamate receptor (NMDA receptor) from homogenized rat brain membrane, using [3H]-MK-801 as a radioligand
Here the recorded log10(Ki) is given for each entry.
Friendly reminder: values = log10 of Ki, unit µM.

[
  {
    "molecule": "CN1C2(C)Cc3ccccc3C1(C)c1ccccc12 (stereo not drawn)",
    "tested-on": "Glutamate NMDA receptor",
    "parameter": "log10(Ki)",
    "reading": -0.15
  }
]

What does the record list as log10(Ki) for OCC(O)[C@]12NC(Cc3ccccc31)c1ccccc12 (stereo partly drawn) ?
-0.49

Okay, and CC12NC(Cc3ccccc31)c1ccc(Br)cc12 (stereo not drawn) ?
-0.74

What about CC12NC(Cc3ccc(O)cc31)c1ccccc12 (stereo not drawn) ?
-1.74

Param item: CCC12NC(Cc3ccccc31)Cc1ccccc12
-0.92

Also CC12NC(Cc3cc(O)ccc31)c1ccccc12 (stereo not drawn) ?
-0.56

Repeat with c1ccc(SCC23NC(Cc4ccccc42)c2ccccc23)cc1 (stereo not drawn)
1.86

* * *

# tested-on: Glutamate NMDA receptor
# method: Inhibition of N-methyl-D-aspartate glutamate receptor (NMDA receptor) from homogenized rat brain membrane, using [3H]-MK-801 as a radioligand
The following compounds are shown together with reported pKi values.
Quick note: pKi values are minus log10 of concentrations in mol/L.

Below are worked cases with known answers.
[
  {
    "compound": "CCC12NC(Cc3ccccc31)c1ccccc12 (stereo not drawn)",
    "tested-on": "Glutamate NMDA receptor",
    "reading": 7.35
  },
  {
    "compound": "CC12NC(Cc3ccc(F)cc31)c1ccccc12 (stereo not drawn)",
    "tested-on": "Glutamate NMDA receptor",
    "reading": 7.52
  },
  {
    "compound": "CC12NC(c3ccccc31)[C@H](O)c1ccccc12 (stereo partly drawn)",
    "tested-on": "Glutamate NMDA receptor",
    "reading": 5.57
  },
  {
    "compound": "CC12NC(Cc3ccccc31)c1ccc(Cl)cc12 (stereo in doubt; 63)",
    "tested-on": "Glutamate NMDA receptor",
    "reading": 7.08
  },
  {
    "compound": "COc1ccc2c(c1)C1Cc3ccccc3C2(C)N1 (stereo not drawn)",
    "tested-on": "Glutamate NMDA receptor",
    "reading": 7.48
  },
  {
    "compound": "OCCN1C2Cc3ccccc3C1c1ccccc12 (stereo not drawn)",
    "tested-on": "Glutamate NMDA receptor",
    "reading": 4.15
  },
  {
    "compound": "COc1ccc2c(c1)C1(C)NC(C2)c2ccccc21 (stereo not drawn)",
    "tested-on": "Glutamate NMDA receptor",
    "reading": 7.34
  },
  {
    "compound": "FCCC12NC(Cc3ccccc31)c1ccccc12 (stereo not drawn)",
    "tested-on": "Glutamate NMDA receptor",
    "reading": 6.76
  },
  {
    "compound": "CC12c3ccccc3CC(c3ccccc31)N2O (stereo not drawn)",
    "tested-on": "Glutamate NMDA receptor",
    "reading": 4.72
  },
  {
    "compound": "CN1C2Cc3ccccc3C1(C)c1ccccc1C2",
    "tested-on": "Glutamate NMDA receptor",
    "reading": 5.92
  }
]

Requested read-out pKi, target or system Glutamate NMDA receptor, entry CC12NC(c3ccccc31)[C@@H](F)c1ccccc12 (stereo partly drawn)
7.96

And CC12NC(Cc3ccc(CO)cc31)c1ccccc12 (stereo not drawn) ?
6.86

Please do the same for CCN1C2Cc3ccccc3C1c1ccccc12 (stereo not drawn) as well.
4.62

Request: CN1C2CCc3ccccc3C1c1ccccc12 (stereo not drawn)
5.59

Again, but for CN1C2CCc3ccccc3C1(C)c1ccccc12 (stereo not drawn)
5.06
